System: MS2 coat protein
Assay: apparent KD of MS2 coat protein; designed switch direction (-1 OFF switch, 1 ON switch): -1; higher = weaker reporter binding
Reported conditions: input ligand: FMN 200 uM
So basically: apparent KD of MS2 coat protein at 70 nM or higher? That is 1. Lower than 70 nM? That is -1.

Below, 4 sequences whose answers are already recorded.
residue_string="GACAAGGUGUAGGAUAUGCUUAGCCUUAAGAAAGCAGAAGGACAAACUUGAGGAUCACCCAAGUGGUCCAAACA [Diraveti] (Eterna round: R97, puzzle: Exclusion 6)" label_class=-1
residue_string="GGUUCGAGAGUAAGGAUAUCGGUCUGCGCGAGUGACGAGAAGGUACAUGAGGAUCACCCAUGUCGAGGGAUCAC [Eternabot (L2) Solution 23] (Eterna round: R97, puzzle: Brourd's mod of Exclusion 4)" label_class=-1
residue_string="UCGUUCCGUGUAGGAUAUUGGCCUCCCUUGGGCCGAGAAGGACAUGAGGAUCACCCAUGUAUGUUAUUAUCGCGCGUGGCGCAU [Design 88] (Eterna round: R96, puzzle: Exclusion NG 1)" label_class=1
residue_string="GUUUCACAUGAGGAUCACCCAUGUGAGGAUAUGUUAUUAAUGGCGAUAGUUAUUGGUGGCAGAAGGCGCGUGAU [JR_Exc1_Sub010] (Eterna round: R97, puzzle: Exclusion 1)" label_class=1

Turning now to a further sequence:
**Q:** State whether the measured apparent KD of MS2 coat protein reaches 70 nM, counting equality as reaching it, for UGUCAGAUGGUAGGAUAUCUAUAUCGAGUGACCCUUUCAUAACAUGAGGAUCACCCAUGUCGGUGGGAGAAGGGCCGUAUGGUG [salish99_ExNG02_R04_029] (Eterna round: R96, puzzle: Exclusion NG 2)
**A:** -1

* * *

Test system: MS2 coat protein
Assay: apparent KD of MS2 coat protein; designed switch direction (-1 OFF switch, 1 ON switch): 1; higher = weaker reporter binding
Reported conditions: input ligand: microRNA oligo, concentration not stated
Reported apparent KD of MS2 coat protein by item:
Report as a plain number; the unit nM is understood.

Example cases with answers are listed next.
residue_string="UUAAUAAAGUAAGGAUAUACAUGAGGAUCACUCGUAGAAGGUACUAAACAUGAGGAUCACCCAUGUACCGGUCCGUAGACUGGA [Mat - Same State NG 1 - JL mod - D1] (Eterna round: R96, puzzle: Same State NG 1)" system_name="MS2 coat protein" unit_symbol=nM measurement=108
residue_string="UUGAUAUGCGCAGGAUAUGGUGAGGAUCACCCACUAGAAGGGUGCACAUGAGAAUCGAACAUGAGGAUCACCCAUGUUCUGAGC (Eterna round: R96, puzzle: Same State NG 1)" system_name="MS2 coat protein" unit_symbol=nM measurement=295
residue_string="UUAGGAUGUGAAGGAUAUGCCGAGUUAAGCCCAGCAGAAGGUUACAUACCUUUUGAUACAUGAGGAUCACCCAUGUUCUAAGAU [Eternabot solution 45] (Eterna round: R96, puzzle: Same State NG 1)" system_name="MS2 coat protein" unit_symbol=nM measurement=33.8

**Q:** Quick check: apparent KD of MS2 coat protein of CUGCUCGUGUGAGGAUAUGCCGCCGUUUCGGCUGCAGAAGGUGCUACGUUACAUGAGGAUCACCCAUGUCUCUGUUGUUUCGUA [salish99_SSNG1_r04_948] (Eterna round: R96, puzzle: Same State NG 1) ?
**A:** 28.8

**Q:** Quick check: apparent KD of MS2 coat protein of CGCGGCAAGGAAGGAUAUGGGACGAAAACGUACCUAGAAGGUCCACAUGAGGAUCACCCAUGUACCAAGAAAACCGCUAAAUUA [Atceorer] (Eterna round: R96, puzzle: Same State NG 1) ?
**A:** 177

* * *

Tested on: MS2 coat protein
Assay: apparent KD of MS2 coat protein; higher = weaker reporter binding
Reported conditions: Eterna round: R107; input ligand: none
Measured parameter: apparent KD of MS2 coat protein
Returns: string containing the numeric result and its unit.

Example cases with answers are listed next.
residue_string="ACAUGAGGAUCACCCAUGUGAGAUAGGGAAGGAGCGCAGGAGGAUGCAGGUAGGUCGCCCACAUGAGGAUCACCCGUGUCUGGAG [#11 Exclusion - Arginine A]" measurement="43.4 nM"
residue_string="GCCUAGCAUCGAAGGAGCGGGCAUUACGCGCGAAAGCGCGAUGCACGAGGAUCACCCGUGUCCCAGGUAGGUCGCGAUGCUAGGC [SSAB Alternative Aptamer #4 V+V2]" measurement="508 nM"

With those in mind, consider the next sequence.
**Q:** Quick check: apparent KD of MS2 coat protein of CUAUAUUAUAGAAGGAGCGUCGAAAAUGGGUAAACAUGAGGAUCACCCAUGUAAAGGGAACGACAGGUAGGUCGCUAUAAUAUAG [AstromonsSSArgB#13] ?
**A:** 220 nM

* * *

Reported apparent KD of MS2 coat protein by item:
Tested on: MS2 coat protein
Assay: apparent KD of MS2 coat protein; higher = weaker reporter binding
Reported conditions: Eterna round: R107; input ligand: theophylline 20 uM
Report as a plain number; the unit nM is understood.

Example cases with answers are listed next.
residue_string="AUGUCGUUGAAUAUAGCGGCUUGGUGUGAUACCAGAAUGAUCUAAUUCCCUUGGCAGCAUUACAUGAGGAUCACCCAUGUUCCAG [SSTheo A #21]" measurement=47.4
residue_string="GUUAUGAUAAGAAGGAGCGUCGAAAAUGGGUAAACAUGAGGAUCACCCAUGUAAAGGGAACGACAGGUAGGUCGCUUAUUAUAAC [AstromonsSSArgB#20]" measurement=270

**Q:** Quick check: apparent KD of MS2 coat protein of UCACAUGAGGAUCACCCAUGUACAGGCGAUACCAGCCGUACAUUGGGCCCUUGGCAGCGCACCGAGGACUUUUUAAGCAUCUCGG [Diatbeen] ?
**A:** 401

* * *

System: MS2 coat protein
Assay: apparent KD of MS2 coat protein; designed switch direction (-1 OFF switch, 1 ON switch): 1; higher = weaker reporter binding
Reported conditions: Eterna round: R95; input ligand: FMN 200 uM
Reported apparent KD of MS2 coat protein by item:

Example cases with answers are listed next.
residue_string="AGUCCAGCGAAAGCUGGACAAAGACAUGUACAUGAGGAUCACCCAUGUCAUGUACAAGUUUUUUGCUCGUCUUAUAA (puzzle: Sensor for hsa-mir-208a)" measured_parameter="apparent KD of MS2 coat protein" measurement="34.4 nM"
residue_string="UACAAUCUAUCUGAGGAUAUCAUGAAUAUAACAUGAGGAUCACCCAUGUGCAGGAAAACUGCAUAUGAGAAGGCAGAUAGAUUGU [salish99_ss2_r3_068] (puzzle: Same State 2)" measured_parameter="apparent KD of MS2 coat protein" measurement="61.3 nM"

**Q:** Quick check: apparent KD of MS2 coat protein of UUUAGUUGCGGGCAGGAUAUGUAUUAAUAUACAUGAGGAUCACCCAUGUGCGGGUAUAACACCCGACAGAAGGGCCAAUCGCGAC [Laonerce - 5] (puzzle: Same State 2) ?
**A:** 28.3 nM

**Q:** Quick check: apparent KD of MS2 coat protein of AGGAAGGAGGCUGAGGAUAUCGUAAGGAGGACAUGAGGAUCACCCAUGUGUAUAGGAUUGGAGGACGAGAAGGCAGAGGAGUGGG [JR_SS2_Sub049] (puzzle: Same State 2) ?
**A:** 49.8 nM

**Q:** Quick check: apparent KD of MS2 coat protein of GUUAAACAUGAGGAUCACCCAUGUCAAUGUAGUCGAGGAUAUGGGCAGCUAUGAGGCGUACUAGAAGGCGAUGAGU [Mat - Same State 1 - Mod of JL - D14] (puzzle: Same State 1) ?
**A:** 38.6 nM

* * *

System: K4 kissing-loop RNA reporter;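 also: bound reporter read as fluorescence of individual clusters on recovered sequencing chips by microscopy, with normalized cluster intensities fitted with a binding model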
Assay: apparent KD of K4 kissing-loop reporter; higher = weaker reporter binding
Reported conditions: Eterna round: R107; input ligand: none
Reported apparent KD of K4 kissing-loop reporter by item:
Report as a plain number; the unit nM is understood.

residue_string="AUUUUUUUAUCAGGAUAUUAGUGUUGGUUUGUUUUGUUAGUGAUGUUGAUAUUUGUUUUAUGUAUUUAAGAAGGGAUUGUGAUGU [huupullin]" measured_parameter="apparent KD of K4 kissing-loop reporter" measurement=409

**Q:** Quick check: apparent KD of K4 kissing-loop reporter of UAUAGAAACGUCCUAUCAGUAAAAUGGGAAGGAGCGAGGAAGGACUCAGGUAGGUCGCCCAAUAACCUUAGUGAUGUUAAGGAAA [Version 2] ?
**A:** 131

**Q:** Quick check: apparent KD of K4 kissing-loop reporter of AAGUCUCGUUAAUUCGAGGUUGCGAUCGAUACCAGUAGCGAGAGGUACCCUUGGCAGCGAAGUGAGUGAUGUUCAUGAAAGAAGA [KL-XTheoA13] ?
**A:** 107

**Q:** Quick check: apparent KD of K4 kissing-loop reporter of AGGCACGAGCAAGGAUAUCGAGUAGAGUGAUGUUCUGCCUGGGUUGGCCCGUAAGGGCCUUCCCAGCGAGAAGGUGCUCGUGCCU [#2 Same State - FMN A Attempt #10 (HarryS)] ?
**A:** 647

**Q:** Quick check: apparent KD of K4 kissing-loop reporter of CCAUCGCUAUUCGAUACCAGCUACUUAGUGAUGUUAAGUUAAAAUCCAUUGUAGAUGGAAAGCCCUUGGCAGCGAAUAGUGAUGG [Theophylline B K4 22] ?
**A:** 465

**Q:** Quick check: apparent KD of K4 kissing-loop reporter of AGUGGUGUUGUGUUAUGUUUGGGAAGUGAUCGAGGACCGGUACGGCCGCCACUCGAGUGAUGAGUGAGUGAUGUUUGUUUAGGGA [whbob_SS_Tryp_A_m10] ?
**A:** 1530
